Biological target: human CB1 receptor (Homo sapiens)
Construct: expressed in transfected cells; membranes used
Sequence (P21554 whole entry): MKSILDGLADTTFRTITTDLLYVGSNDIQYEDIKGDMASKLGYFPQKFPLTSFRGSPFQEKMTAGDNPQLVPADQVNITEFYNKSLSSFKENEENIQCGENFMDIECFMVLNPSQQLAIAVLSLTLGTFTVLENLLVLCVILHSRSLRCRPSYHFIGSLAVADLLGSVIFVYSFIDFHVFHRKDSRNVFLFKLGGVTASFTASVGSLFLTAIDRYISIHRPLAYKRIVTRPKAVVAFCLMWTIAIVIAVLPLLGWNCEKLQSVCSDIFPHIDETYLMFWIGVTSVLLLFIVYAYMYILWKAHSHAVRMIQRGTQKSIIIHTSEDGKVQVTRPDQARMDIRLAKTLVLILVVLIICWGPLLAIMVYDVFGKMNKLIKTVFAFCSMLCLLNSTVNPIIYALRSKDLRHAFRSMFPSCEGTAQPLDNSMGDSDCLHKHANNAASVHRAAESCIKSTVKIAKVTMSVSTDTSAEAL
Assay: Cannabinoid Receptor-1 functional assay: inhibition of CP55940-induced [35S]GTPγS binding to membranes of CHO-K1 cells expressing human CB1
Format: biochemical
Settings: 3 nM CP55940, [35S]GTPγS SPA, hCB1 membranes; read-out: IC50 value for antagonizing a CB1 receptor agonist

# molecule, IC50
records = [
    ("O=C(O)Cc1c(C(=O)N2CCCCC2)nn(-c2ccccc2Cl)c1-c1ccc(Cl)cc1 [[1.47]]", "300 to 3000 nM"),
    ("COC[C@@H]1CCCN1C(=O)c1nn(-c2ccccc2Cl)c(-c2ccc(Cl)cc2)c1CC(=O)O [[1.41]]", "300 to 3000 nM"),
    ("O=C(O)Cc1c(C(=O)N2CCOCC2)nn(-c2ccccc2Cl)c1-c1ccc(Cl)cc1 [[1.48]]", "3000 to 10000 nM"),
    ("O=C(O)Cc1c(C(=O)N2CCC(O)(c3ccc(F)cc3)CC2)nn(-c2ccccc2Cl)c1-c1ccc(Cl)cc1 [[1.7]]", "< 300 nM"),
    ("O=C(O)Cc1c(C(=O)N2CCC(O)(c3cccnc3)CC2)nn(-c2ccccc2Cl)c1-c1ccc(Cl)cc1 [Compound [1.8]]", "3000 to 10000 nM"),
    ("N#Cc1ccccc1C1CCN(C(=O)c2nn(-c3ccccc3Cl)c(-c3ccc(Cl)cc3)c2CC(=O)O)CC1 [[1.51]]", "< 300 nM"),
    ("O=C(O)Cc1c(C(=O)N2CCC(c3ccccc3F)CC2)nn(-c2ccccc2F)c1-c1ccc(Cl)cc1 [[4.4]]", "< 300 nM"),
    ("O=C(O)Cc1c(C(=O)N2CC[C@H](c3ccccc3)[C@@H](O)C2)nn(-c2ccccc2Cl)c1-c1ccc(Cl)cc1 [[1.44]]", "300 to 3000 nM"),
    ("O=C(O)Cc1c(C(=O)N2CCC(OCc3ccccc3)CC2)nn(-c2ccccc2Cl)c1-c1ccc(Cl)cc1 [[1.49]]", "< 300 nM"),
    ("O=C(c1nn(-c2ccccc2Cl)c(-c2ccc(Cl)cc2)c1Cc1nn[nH]n1)N1CCC(Oc2ccccc2)CC1 [[3.5]]", "< 300 nM"),
    ("O=C(O)Cc1c(C(=O)N2CCC(Oc3ccccc3)CC2)nn(-c2ccccc2Cl)c1-c1ccc(Cl)cc1 [[1.58]]", "< 300 nM"),
    ("O=C(O)Cc1c(C(=O)N2CCC(c3ccc(F)cc3)CC2)nn(-c2ccccc2Cl)c1-c1ccc(Cl)cc1 [[1.5]]", "< 300 nM"),
    ("O=C(O)Cc1c(C(=O)N2CCC(c3cccc(C(=O)O)c3)CC2)nn(-c2ccccc2Cl)c1-c1ccc(Cl)cc1 [[1.30]]", "3000 to 10000 nM"),
    ("Cc1c(C(=O)N2CCC(C(=O)O)(c3ccccc3)CC2)nn(-c2ccccc2Cl)c1-c1ccc(Cl)cc1 [[2.1]]", "< 300 nM"),
    ("O=C(O)Cc1c(C(=O)N2CCC(c3ccncc3)CC2)nn(-c2ccccc2Cl)c1-c1ccc(Cl)cc1 [[1.32]]", "300 to 3000 nM"),
]

meta.source: patent US8148404B2
